Listing: MIC of selected compounds
- Tested on: Escherichia coli
- assay_summary: Synergistic antibacterial activity against wild type Escherichia coli BW25113 assessed as levofloxacin MIC at 64 microg/ml incubated for 18 hrs by broth dilution assay
- Type: functional
- measurement_conditions: dose 64 µg/ml
Peptide text beside a SMILES is read from it.
Write the number in µg/mL without appending the unit.

COc1ccc(OCCCOc2cccc3c4c(c(C(=O)N5CCOCC5)cc23)CCC(C)(C)O4)cc1
0.032
CC1(C)CCc2c(C(=O)N3CCOCC3)cc3c(OCCCOc4cccc(C(=O)O)c4)cccc3c2O1
0.016
CC1(C)CCc2c(C(=O)N3CCOCC3)cc3c(OCCN4CCN(c5ccccc5)CC4)cccc3c2O1
0.016

Task: What does the data say about its MIC? Entry: CC1(C)CCc2c(C(=O)N3CCOCC3)cc3c(OCCOc4ccc([N+](=O)[O-])cc4)cccc3c2O1
Result: 0.032

Task: Lookup N=C(N)NCCC[C@H](NC(=O)[C@@H](N)Cc1ccccc1)C(=O)Nc1ccc2ccccc2c1 [PABETAN] (HELM PEPTIDE1{F.R.[c1ccc2cc(N[*:1])ccc2c1]}$$$$V2.0)
Result: 0.008

Task: Lookup CC1(C)CCc2c(C(=O)N3CCOCC3)cc3c(OCCCSc4ccc(N)cc4)cccc3c2O1
Result: 0.008

Task: Lookup CC1(C)CCc2c(C(=O)N3CCOCC3)cc3c(OCCSc4ccc([N+](=O)[O-])cc4)cccc3c2O1
Result: 0.016

---

Listing: survival at 72 h, 128 microg/ml of selected compounds
- assay_summary: Toxicity in Caenorhabditis elegans assessed as survival rate at 128 microg/ml measured after 72 hrs by light microscopic analysis
- measurement_conditions: at 128 µg/mL
Quick note: unit goes after the number.

Worked set:
CC1(C)CCc2c(C(=O)N3CCOCC3)cc3c(OCCOc4ccc([N+](=O)[O-])cc4)cccc3c2O1
90%
CC1(C)S[C@@H]2[C@H](NC(=O)[C@H](N)c3ccccc3)C(=O)N2[C@H]1C(=O)O
99%
CC1(C)CCc2c(C(=O)N3CCOCC3)cc3c(OCCSc4ccc([N+](=O)[O-])cc4)cccc3c2O1
90%

Consider the additional compound presented here.
Task: What does the data say about its survival at 72 h, 128 microg/ml? Entry: CC1(C)CCc2c(C(=O)N3CCOCC3)cc3c(OCCCSc4ccc(N)cc4)cccc3c2O1
Result: 90%

---

Listing: survival at 72 h, 128 microg/ml of selected compounds
- assay_summary: Toxicity in Caenorhabditis elegans assessed as survival rate at 128 microg/ml measured after 72 hrs by light microscopic analysis
- measurement_conditions: at 128 µg/mL
Write the number in % without appending the unit.

CC1(C)CCc2c(C(=O)N3CCOCC3)cc3c(OCCN4CCN(c5ccccc5)CC4)cccc3c2O1
90
CC1(C)CCc2c(C(=O)N3CCOCC3)cc3c(OCCCOc4cccc(C(=O)O)c4)cccc3c2O1
90

Consider the additional compound presented here.
Task: What does the data say about its survival at 72 h, 128 microg/ml? Entry: COc1ccc(OCCCOc2cccc3c4c(c(C(=O)N5CCOCC5)cc23)CCC(C)(C)O4)cc1
Result: 90

---

- System: Escherichia coli
- assay_summary: Synergistic antibacterial activity against wild type Escherichia coli BW25113 assessed as erythromycin MIC at 16 microg/ml incubated for 18 hrs in presence of colistin by broth dilution assay
- Type: functional
- measurement_conditions: dose 16 µg/ml
Listing: MIC of selected compounds
Write the number in µg/mL without appending the unit.

COc1ccc(OCCCOc2cccc3c4c(c(C(=O)N5CCOCC5)cc23)CCC(C)(C)O4)cc1
16
CC1(C)CCc2c(C(=O)N3CCOCC3)cc3c(OCCSc4ccc([N+](=O)[O-])cc4)cccc3c2O1
8
CC1(C)CCc2c(C(=O)N3CCOCC3)cc3c(OCCCOc4cccc(C(=O)O)c4)cccc3c2O1
4
CC1(C)CCc2c(C(=O)N3CCOCC3)cc3c(OCCOc4ccc([N+](=O)[O-])cc4)cccc3c2O1
8

Task: What does the data say about its MIC? Entry: CC1(C)CCc2c(C(=O)N3CCOCC3)cc3c(OCCCSc4ccc(N)cc4)cccc3c2O1
Result: 8

Origin of measurements: ChEMBL document CHEMBL5346892
